Data provenance: the supplement of paper PMC10126150

test system: ATP; experiment: switch fluorescence ratio, 500 uM ATP over buffer (Cy3 cluster intensity, sum of 5 cycles each) (fold (ratio)); higher = stronger signal-on switching upon ATP binding; sequences stand for … in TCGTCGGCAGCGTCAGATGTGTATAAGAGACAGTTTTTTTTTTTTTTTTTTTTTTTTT…TC; details: aptamer strand: ATP DNA aptamer (quencher-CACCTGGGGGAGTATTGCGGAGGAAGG + anchor), 100 nM annealed; ATP concentration: 500 uM;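 further: ATP exposure 15 min at 22 °C before imaging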
The label depends only on switch fluorescence ratio: MET if it is at least 1, NOT MET if it is smaller.

[[record]]
entry_sequence = "TTTGCTGGAT"
qualitative_label = "MET"

[[record]]
entry_sequence = "CCTGTGTCCG"
qualitative_label = "MET"

[[record]]
entry_sequence = "GCTCGGGTGT"
qualitative_label = "MET"

[[record]]
entry_sequence = "TCAGATTGTT"
qualitative_label = "NOT MET"

[[record]]
entry_sequence = "TCCGGTAGTT"
qualitative_label = "MET"

[[record]]
entry_sequence = "ATATAGGGTT"
qualitative_label = "MET"

[[record]]
entry_sequence = "CCATGGGGGG"
qualitative_label = "MET"

[[record]]
entry_sequence = "TTTCAGTCTA"
qualitative_label = "MET"

[[record]]
entry_sequence = "GGGGTGGCGC"
qualitative_label = "NOT MET"

[[record]]
entry_sequence = "ATTTTGGCAA"
qualitative_label = "MET"

[[record]]
entry_sequence = "TCTTCCTGGA"
qualitative_label = "MET"

[[record]]
entry_sequence = "GGAATGCGGG"
qualitative_label = "NOT MET"

[[record]]
entry_sequence = "AGTGGTTTGT"
qualitative_label = "NOT MET"

[[record]]
entry_sequence = "AAGCCGGCTA"
qualitative_label = "MET"

[[record]]
entry_sequence = "CCAGGCGTAT"
qualitative_label = "MET"

[[record]]
entry_sequence = "GATGGACTTT"
qualitative_label = "MET"

[[record]]
entry_sequence = "GACCCTATTC"
qualitative_label = "MET"

[[record]]
entry_sequence = "GGAAGGGTTT"
qualitative_label = "MET"

[[record]]
entry_sequence = "ACACCTGAGT"
qualitative_label = "MET"

[[record]]
entry_sequence = "CAGTCTTTTT"
qualitative_label = "MET"


---

system: ATP; experiment: switch fluorescence ratio, 500 uM ATP over buffer (Cy3 cluster intensity, sum of 5 cycles each) (fold (ratio)); higher = stronger signal-on switching upon ATP binding; sequences stand for … in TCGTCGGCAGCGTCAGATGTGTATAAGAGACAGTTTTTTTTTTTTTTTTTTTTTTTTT…TC; conditions: aptamer strand: ATP DNA aptamer (quencher-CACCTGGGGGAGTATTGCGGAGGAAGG + anchor), 100 nM annealed; ATP concentration: 500 uM;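 further: ATP exposure 15 min at 22 °C before imaging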
attribute measured: switch fluorescence ratio

[[record]]
entry_sequence = "AAGATCACTT"
endpoint_result = 0.979

[[record]]
entry_sequence = "ACATGGGGGG"
endpoint_result = 0.993

[[record]]
entry_sequence = "TTAAGGGAGG"
endpoint_result = 0.992

[[record]]
entry_sequence = "GTGTTTTCGG"
endpoint_result = 0.985

[[record]]
entry_sequence = "GTGGAAGGCA"
endpoint_result = 0.992

[[record]]
entry_sequence = "CTCGTCTGAG"
endpoint_result = 1

[[record]]
entry_sequence = "AGCCTTGGGA"
endpoint_result = 1

[[record]]
entry_sequence = "CGCATAGGAC"
endpoint_result = 3.16

[[record]]
entry_sequence = "CCGATACGGT"
endpoint_result = 1.08

[[record]]
entry_sequence = "ACATTCGCGT"
endpoint_result = 1.05

[[record]]
entry_sequence = "ATGTACGTTT"
endpoint_result = 0.998

[[record]]
entry_sequence = "GAGGGGTTGC"
endpoint_result = 1.09

[[record]]
entry_sequence = "TAAGATGGTG"
endpoint_result = 0.981

[[record]]
entry_sequence = "TTCTGTATGC"
endpoint_result = 1.02

[[record]]
entry_sequence = "TTTTTGGTCG"
endpoint_result = 0.993

[[record]]
entry_sequence = "TTAGAGTGCA"
endpoint_result = 1.02

[[record]]
entry_sequence = "TCCTCATTTG"
endpoint_result = 1

[[record]]
entry_sequence = "CTGTGCGCCA"
endpoint_result = 1.12

[[record]]
entry_sequence = "GGAATCCTTG"
endpoint_result = 1

[[record]]
entry_sequence = "AAAGGCCGT"
endpoint_result = 1.02


---

test system: ATP; assay: switch fluorescence ratio, 500 uM ATP over buffer (Cy3 cluster intensity, sum of 5 cycles each) (fold (ratio)); higher = stronger signal-on switching upon ATP binding; sequences stand for … in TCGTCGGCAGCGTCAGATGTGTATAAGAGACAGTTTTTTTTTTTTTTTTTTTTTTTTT…TC; conditions: aptamer strand: ATP DNA aptamer (quencher-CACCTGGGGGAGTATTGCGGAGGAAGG + anchor), 100 nM annealed; ATP concentration: 500 uM;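 further: ATP exposure 15 min at 22 °C before imaging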
Let's look at some sequences and their measured switch fluorescence ratio.
attribute measured: switch fluorescence ratio

[[record]]
entry_sequence = "CGGGGCTAGC"
attribute_measured = "switch fluorescence ratio"
endpoint_result = 1.02

[[record]]
entry_sequence = "ATGGCTTGGT"
attribute_measured = "switch fluorescence ratio"
endpoint_result = 0.99

[[record]]
entry_sequence = "ACGTTCGCGG"
attribute_measured = "switch fluorescence ratio"
endpoint_result = 0.985

[[record]]
entry_sequence = "AGTCTGGACT"
attribute_measured = "switch fluorescence ratio"
endpoint_result = 0.988

[[record]]
entry_sequence = "GTGGATTTGA"
attribute_measured = "switch fluorescence ratio"
endpoint_result = 1.01

[[record]]
entry_sequence = "TGGGGGTGAG"
attribute_measured = "switch fluorescence ratio"
endpoint_result = 1

[[record]]
entry_sequence = "TGGTTTGGAG"
attribute_measured = "switch fluorescence ratio"
endpoint_result = 0.984

[[record]]
entry_sequence = "ATATGTGTGT"
attribute_measured = "switch fluorescence ratio"
endpoint_result = 0.995

[[record]]
entry_sequence = "CGGGTTCCAC"
attribute_measured = "switch fluorescence ratio"
endpoint_result = 1.01

[[record]]
entry_sequence = "GGCAACGCGT"
attribute_measured = "switch fluorescence ratio"
endpoint_result = 1

[[record]]
entry_sequence = "GGGGGGGGCT"
attribute_measured = "switch fluorescence ratio"
endpoint_result = 1

[[record]]
entry_sequence = "GTGATATGGA"
attribute_measured = "switch fluorescence ratio"
endpoint_result = 0.992

[[record]]
entry_sequence = "TGGGGAGGGC"
attribute_measured = "switch fluorescence ratio"
endpoint_result = 1

[[record]]
entry_sequence = "TTGGTAGGGT"
attribute_measured = "switch fluorescence ratio"
endpoint_result = 0.995

[[record]]
entry_sequence = "TTTTATCATG"
attribute_measured = "switch fluorescence ratio"
endpoint_result = 0.976

[[record]]
entry_sequence = "TATGTATTAT"
attribute_measured = "switch fluorescence ratio"
endpoint_result = 0.994

[[record]]
entry_sequence = "TGATTTGGCA"
attribute_measured = "switch fluorescence ratio"
endpoint_result = 1.02

[[record]]
entry_sequence = "ACAGGCAGGA"
attribute_measured = "switch fluorescence ratio"
endpoint_result = 1.01

[[record]]
entry_sequence = "TAAAAAATGT"
attribute_measured = "switch fluorescence ratio"
endpoint_result = 1

[[record]]
entry_sequence = "TCCCTTGGGT"
attribute_measured = "switch fluorescence ratio"
endpoint_result = 1

[[record]]
entry_sequence = "GGCTGGGGT"
attribute_measured = "switch fluorescence ratio"
endpoint_result = 1.02

[[record]]
entry_sequence = "TCATAGAGTA"
attribute_measured = "switch fluorescence ratio"
endpoint_result = 1.02

[[record]]
entry_sequence = "CGTTGGCACG"
attribute_measured = "switch fluorescence ratio"
endpoint_result = 0.997

[[record]]
entry_sequence = "ACCAATATAT"
attribute_measured = "switch fluorescence ratio"
endpoint_result = 0.996

[[record]]
entry_sequence = "GTTAGACTAT"
attribute_measured = "switch fluorescence ratio"
endpoint_result = 0.991

[[record]]
entry_sequence = "GGTGGGTGTG"
attribute_measured = "switch fluorescence ratio"
endpoint_result = 1

[[record]]
entry_sequence = "CCGTGGTTTA"
attribute_measured = "switch fluorescence ratio"
endpoint_result = 1


---

Let's look at some sequences and their measured switch fluorescence ratio.
test system: ATP; test: switch fluorescence ratio, 500 uM ATP over buffer (Cy3 cluster intensity, sum of 5 cycles each) (fold (ratio)); higher = stronger signal-on switching upon ATP binding; sequences stand for … in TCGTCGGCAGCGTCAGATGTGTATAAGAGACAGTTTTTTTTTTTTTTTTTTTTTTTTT…TC; conditions: aptamer strand: ATP DNA aptamer (quencher-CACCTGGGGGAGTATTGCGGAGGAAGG + anchor), 100 nM annealed; ATP concentration: 500 uM;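 further: ATP exposure 15 min at 22 °C before imaging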
attribute measured: switch fluorescence ratio

[[record]]
entry_sequence = "AGCTTCAGTC"
attribute_measured = "switch fluorescence ratio"
endpoint_result = 1

[[record]]
entry_sequence = "ATGATGCTTG"
attribute_measured = "switch fluorescence ratio"
endpoint_result = 0.993

[[record]]
entry_sequence = "GAGATTGCGC"
attribute_measured = "switch fluorescence ratio"
endpoint_result = 1.02

